- system: prefusion RSV F (DS-Cav1) (Human respiratory syncytial virus A, UniProt P03420, I379V/M447V/S155C/S190F/S290C/V207L)
- procedureSummary: biochemical
- Assay type: binding, RSV strain A2
pKd: −log10 of the molar value.
propertyMeasured: pKd

[
  {
    "molecule": "O=C(c1cccnc1)N1CCN2C(=O)c3ccncc3[C@]12c1ccc(Cl)cc1 [BTA-9881]",
    "endpointResult": 7.41
  }
]
